biological target: Arginase-2, mitochondrial (Homo sapiens) (UniProt P78540); experiment: in vitro enzyme assay to detect the production of urea directly proportional to the activity of Arginase II; type: functional; parameters: scale not given: in the data most compounds retested in dose-response had high values; settings: 33.3 µM
Sequence (P78540 whole entry): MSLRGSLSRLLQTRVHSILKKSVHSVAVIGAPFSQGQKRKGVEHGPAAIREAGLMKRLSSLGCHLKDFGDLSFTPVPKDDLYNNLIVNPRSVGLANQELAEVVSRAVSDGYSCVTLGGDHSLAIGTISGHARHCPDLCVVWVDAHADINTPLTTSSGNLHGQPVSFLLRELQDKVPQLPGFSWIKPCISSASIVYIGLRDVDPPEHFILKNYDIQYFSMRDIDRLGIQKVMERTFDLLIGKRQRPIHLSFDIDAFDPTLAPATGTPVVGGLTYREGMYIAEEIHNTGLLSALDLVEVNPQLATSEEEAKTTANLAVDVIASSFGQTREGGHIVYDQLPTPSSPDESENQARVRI
measuredEndpoint: Percent Effect (%)
Answers are plain numbers, in %.

For each of the molecules below, note its Percent Effect.
1. CNS(=O)(=O)c1ccc(C(=O)NC2CCOc3ccccc32)o1 (stereo not drawn)
2. O=C(c1cn(-c2cc(N3CCOCC3)ncn2)cn1)N1CCSCC1

Response line:
1: -3.55; 2: 4.09

---

Task for the reader: assign each of the following molecules its reported Percent Effect.
organism: Homo sapiens; assay: To identify inhibition of the IFN signalling (Jak-Stat) pathway via expression of an eGFP reporter gene under the control of an IFN-stimulated response element (ISRE) containing MxA promoter.; type: functional; design: scale not given: direction of the effect not stated beside the values; conditions: 30 µM
Answers are plain numbers, in %.

molecule	measuredEndpoint	measuredNumber
COCC1CCN(C(=O)c2cccc(S(=O)(=O)NCC3(C)COC3)c2)C1 (centres undefined)	Percent Effect	9.82

For each of the molecules below, note its Percent Effect.
1. Cc1nccn1CC1CCCN1CCCc1nc(-c2cccs2)no1 (centres undefined)
2. O=C(NCCCn1cccn1)N1CCCC1c1ccncc1 (centres undefined)
3. CN(C)CCOCC1CN(CC2CCOCC2)Cc2nnn(C)c21 (centres undefined)
4. CN(C)C[C@H]1OC[C@@H]2CCN(C(=O)c3ccco3)C[C@@H]21
5. CCCNC(=O)NC(=O)CN(CC(C)O)c1ccccc1 (centres undefined)

Response line:
36.5
25.4
17
11.6
-9.46

For each of the molecules below, note its Percent Effect.
1. Cc1ccoc1C(=O)N1C[C@@H]2[C@@H](C1)OCC(=O)N2Cc1cccnc1
2. CC(OCC1CC1)C(=O)N1CCCN(Cc2cnn(C)c2)CC1 (centres undefined)
3. CCN(Cc1nc(C(C)C)no1)Cc1cccs1
4. O=C(NCCc1cccc(F)c1)NCC(O)c1cccc(F)c1 (centres undefined)
5. CCn1nccc1CNC(=O)C1CC1
6. Cc1noc(C(C)C)c1C(=O)N1CCOCC1CC(=O)c1ccco1 (centres undefined)

Response line:
[19.8, 6.99, 6.22, 10.8, -23.9, -20.2]

For each of the molecules below, note its Percent Effect.
1. COc1cccc(C(=O)NCC(O)c2cccs2)c1 (centres undefined)
2. Cc1ccc(NC2CCN(C(=O)CCc3ccco3)CC2)nn1
3. COCC1CN(Cc2ccc(C)o2)Cc2ncn(CC3CC3)c21 (centres undefined)
4. O=C(NCCN1CCOCC1)c1n[nH]c(=O)c2ccccc12

Response line:
1. -9.23
2. 8.89
3. -10.6
4. 12.3

For each of the molecules below, note its Percent Effect.
1. c1coc(-c2noc(CN3CCC(c4ccn[nH]4)CC3)n2)c1
2. Cc1cc(C)n(C2CCCN(C(=O)c3cnc4onc(C)c4c3)C2)n1 (centres undefined)
3. CN(Cc1ncc(C(C)(C)C)o1)C1CCCN(c2cccnn2)C1 (centres undefined)

Response line:
1. 3.15
2. 38.1
3. 2.64

For each of the molecules below, note its Percent Effect.
1. O=C(Cc1ccc2c(c1)OCCO2)N1CCCC(n2ccnc2)C1 (centres undefined)
2. CN(C)CCN(Cc1ccc(Cl)cc1)C(=O)c1cc[nH]n1

Response line:
1: 2.67; 2: 3.16

For each of the molecules below, note its Percent Effect.
1. CCCNC(=O)Cn1nc(C(C)C)c2cnn(C(C)(C)C)c2c1=O
2. O=C(NCCCN1CCOCC1)c1cc(-c2ccco2)[nH]n1
3. CC(C)c1nn(C)c(N2CCOCC2)c1CN[C@H](C)CO

Response line:
1: 5.42; 2: 0.231; 3: -5.23
